System: MCF7
Assay: Cytotoxicity against human MCF7 cells assessed as reduction in cell viability after 72 hrs by MTT assay
Type: functional, cell-based
Details: MCF7, 72 h
RECORDED_ENDPOINT: log10 IC50 (log10 of the value in nM)

• CN1[C@@H]2c3[nH]c4ccccc4c3C[C@H]1[C@H](C#N)N1[C@@H](CN3C(=O)c4ccccc4C3=O)c3[nH]c4ccccc4c3C[C@@H]21 = 2.79
• CN1[C@@H]2c3[nH]c4ccccc4c3C[C@H]1[C@H](C#N)N1[C@@H](CNC(=O)c3ccco3)c3[nH]c4ccccc4c3C[C@@H]21 = 2.20
• CN1[C@@H]2c3[nH]c4ccccc4c3C[C@H]1[C@H](C#N)N1[C@@H](CNC(=O)c3ccccc3)c3[nH]c4ccccc4c3C[C@@H]21 = 3.99
• CC(=O)NC[C@H]1c2[nH]c3ccccc3c2C[C@H]2[C@H]3c4[nH]c5ccccc5c4C[C@@H]([C@H](C#N)N12)N3C = 3.72
• CCc1ccc(C(=O)NC[C@H]2c3[nH]c4ccccc4c3C[C@H]3[C@H]4c5[nH]c6ccccc6c5C[C@@H]([C@H](C#N)N23)N4C)cc1 = 2.23
• CN1[C@@H]2c3[nH]c4ccccc4c3C[C@H]1[C@H](C#N)N1[C@@H](CNC(=O)/C=C/c3ccccc3)c3[nH]c4ccccc4c3C[C@@H]21 = 3.86
• CN1[C@@H]2c3[nH]c4ccccc4c3C[C@H]1[C@H](C#N)N1[C@@H](CNC(=O)c3cccs3)c3[nH]c4ccccc4c3C[C@@H]21 = 2.67
• CN1[C@@H]2c3[nH]c4ccccc4c3C[C@H]1[C@H](C#N)N1[C@@H](CNC(=O)c3ccc4ccccc4c3)c3[nH]c4ccccc4c3C[C@@H]21 = 3.67
• CN1[C@@H]2c3[nH]c4ccccc4c3C[C@H]1[C@H](C#N)N1[C@@H](CNC(=O)/C=C/c3cccc(C(F)(F)F)c3)c3[nH]c4ccccc4c3C[C@@H]21 = 2.04
• COc1ccc(/C=C/C(=O)NC[C@H]2c3[nH]c4ccccc4c3C[C@H]3[C@H]4c5[nH]c6ccccc6c5C[C@@H]([C@H](C#N)N23)N4C)cc1 = 3.63
• CN1[C@@H]2c3[nH]c4ccccc4c3C[C@H]1[C@H](C#N)N1[C@@H](CNC(=O)c3ccccn3)c3[nH]c4ccccc4c3C[C@@H]21 = 1.60
• CN1[C@@H]2c3[nH]c4ccccc4c3C[C@H]1[C@H](C#N)N1[C@@H](CNC(=O)c3cc4ccccc4o3)c3[nH]c4ccccc4c3C[C@@H]21 = 2.51

* * *

System: BGC-823
Experiment: Cytotoxicity against human BGC823 cells assessed as reduction in cell viability after 72 hrs by MTT assay
Type: functional, cell-based
Settings: BGC-823, 72 h
pIC50: −log10 of the molar value.
Overview of reported pIC50 across a group of compounds:
RECORDED_ENDPOINT: pIC50

• CN1[C@@H]2c3[nH]c4ccccc4c3C[C@H]1[C@H](C#N)N1[C@@H](CNC(=O)c3ccccn3)c3[nH]c4ccccc4c3C[C@@H]21 = 7.10
• CN1[C@@H]2c3[nH]c4ccccc4c3C[C@H]1[C@H](C#N)N1[C@@H](CNC(=O)c3cc4ccccc4o3)c3[nH]c4ccccc4c3C[C@@H]21 = 6.68
• COc1ccc(C(=O)NC[C@H]2c3[nH]c4ccccc4c3C[C@H]3[C@H]4c5[nH]c6ccccc6c5C[C@@H]([C@H](C#N)N23)N4C)cc1 = 6.49
• CN1[C@@H]2c3[nH]c4ccccc4c3C[C@H]1[C@H](C#N)N1[C@@H](CNC(=O)c3cccc(C(F)(F)F)c3)c3[nH]c4ccccc4c3C[C@@H]21 = 6.06
• CN1[C@@H]2c3[nH]c4ccccc4c3C[C@H]1[C@H](C#N)N1[C@@H](CNC(=O)c3cc4ccccc4s3)c3[nH]c4ccccc4c3C[C@@H]21 = 6.62
• CN1[C@@H]2c3[nH]c4ccccc4c3C[C@H]1[C@H](C#N)N1[C@@H](CNC(=O)/C=C/c3cccc(C(F)(F)F)c3)c3[nH]c4ccccc4c3C[C@@H]21 = 6.04
• CN1[C@@H]2c3[nH]c4ccccc4c3C[C@H]1[C@H](C#N)N1[C@@H](CNC(=O)c3ccccc3)c3[nH]c4ccccc4c3C[C@@H]21 = 6.13
• CC(=O)NC[C@H]1c2[nH]c3ccccc3c2C[C@H]2[C@H]3c4[nH]c5ccccc5c4C[C@@H]([C@H](C#N)N12)N3C = 5.66

* * *

Form field: IC50 (one value per entry).
System: BGC-823
Experiment: Cytotoxicity against human BGC823 cells assessed as reduction in cell viability after 72 hrs by MTT assay
Format: functional, cell-based
Conditions: BGC-823, 72 h
RECORDED_ENDPOINT: IC50 (nM)

- CN1[C@@H]2c3[nH]c4ccccc4c3C[C@H]1[C@H](C#N)N1[C@@H](CNC(=O)c3ccc4ccccc4n3)c3[nH]c4ccccc4c3C[C@@H]21: 80
- CN1[C@@H]2c3[nH]c4ccccc4c3C[C@H]1[C@H](C#N)N1[C@@H](CNC(=O)c3ccc4ccccc4c3)c3[nH]c4ccccc4c3C[C@@H]21: 1110
- CN1[C@@H]2c3[nH]c4ccccc4c3C[C@H]1[C@H](C#N)N1[C@@H](CNC(=O)c3cccc4c3CCCC4)c3[nH]c4ccccc4c3C[C@@H]21: 3540
- CN1[C@@H]2c3[nH]c4ccccc4c3C[C@H]1[C@H](C#N)N1[C@@H](CNC(=O)c3ccc(Cl)cc3)c3[nH]c4ccccc4c3C[C@@H]21: 110
- CN1[C@@H]2c3[nH]c4ccccc4c3C[C@H]1[C@H](C#N)N1[C@@H](CNC(=O)c3ccco3)c3[nH]c4ccccc4c3C[C@@H]21: 300
- CN1[C@@H]2c3[nH]c4ccccc4c3C[C@H]1[C@H](C#N)N1[C@@H](CNC(=O)c3cccs3)c3[nH]c4ccccc4c3C[C@@H]21: 280
- CN1[C@@H]2c3[nH]c4ccccc4c3C[C@H]1[C@H](C#N)N1[C@@H](CNC(=O)c3cc4ccccc4[nH]3)c3[nH]c4ccccc4c3C[C@@H]21: 1690
- CN1[C@@H]2c3[nH]c4ccccc4c3C[C@H]1[C@H](C#N)N1[C@@H](CNC(=O)c3ccc(F)cc3)c3[nH]c4ccccc4c3C[C@@H]21: 310
- CN1[C@@H]2c3[nH]c4ccccc4c3C[C@H]1[C@H](C#N)N1[C@@H](CNC(=O)/C=C/c3ccccc3)c3[nH]c4ccccc4c3C[C@@H]21: 4300
- CN1[C@@H]2c3[nH]c4ccccc4c3C[C@H]1[C@H](C#N)N1[C@@H](CN3C(=O)c4ccccc4C3=O)c3[nH]c4ccccc4c3C[C@@H]21: 410
- CCc1ccc(C(=O)NC[C@H]2c3[nH]c4ccccc4c3C[C@H]3[C@H]4c5[nH]c6ccccc6c5C[C@@H]([C@H](C#N)N23)N4C)cc1: 660
- COc1ccc(/C=C/C(=O)NC[C@H]2c3[nH]c4ccccc4c3C[C@H]3[C@H]4c5[nH]c6ccccc6c5C[C@@H]([C@H](C#N)N23)N4C)cc1: 5450

* * *

Test system: HT-29
Assay: Cytotoxicity against human HT-29 cells assessed as reduction in cell viability after 72 hrs by MTT assay
Type: functional, cell-based
Conditions: HT-29, 72 h
Rule: IC50 below 1000 nM gives y. Equal to or above 1000 nM gives n.

• CN1[C@@H]2c3[nH]c4ccccc4c3C[C@H]1[C@H](C#N)N1[C@@H](CNC(=O)/C=C/c3ccccc3)c3[nH]c4ccccc4c3C[C@@H]21 = n
• CN1[C@@H]2c3[nH]c4ccccc4c3C[C@H]1[C@H](C#N)N1[C@@H](CNC(=O)c3cccs3)c3[nH]c4ccccc4c3C[C@@H]21 = n
• CN1[C@@H]2c3[nH]c4ccccc4c3C[C@H]1[C@H](C#N)N1[C@@H](CNC(=O)c3cccc4c3CCCC4)c3[nH]c4ccccc4c3C[C@@H]21 = n
• COc1ccc(/C=C/C(=O)NC[C@H]2c3[nH]c4ccccc4c3C[C@H]3[C@H]4c5[nH]c6ccccc6c5C[C@@H]([C@H](C#N)N23)N4C)cc1 = n
• CN1[C@@H]2c3[nH]c4ccccc4c3C[C@H]1[C@H](C#N)N1[C@@H](CNC(=O)c3cc4ccccc4s3)c3[nH]c4ccccc4c3C[C@@H]21 = y
• CN1[C@@H]2c3[nH]c4ccccc4c3C[C@H]1[C@H](C#N)N1[C@@H](CNC(=O)/C=C/c3cccc(C(F)(F)F)c3)c3[nH]c4ccccc4c3C[C@@H]21 = n
• CN1[C@@H]2c3[nH]c4ccccc4c3C[C@H]1[C@H](C#N)N1[C@@H](CNC(=O)c3ccc(F)cc3)c3[nH]c4ccccc4c3C[C@@H]21 = n
• CN1[C@@H]2c3[nH]c4ccccc4c3C[C@H]1[C@H](C#N)N1[C@@H](CNC(=O)c3ccccc3)c3[nH]c4ccccc4c3C[C@@H]21 = y
• CN1[C@@H]2c3[nH]c4ccccc4c3C[C@H]1[C@H](C#N)N1[C@@H](CNC(=O)c3ccc4ccccc4n3)c3[nH]c4ccccc4c3C[C@@H]21 = y
• CN1[C@@H]2c3[nH]c4ccccc4c3C[C@H]1[C@H](C#N)N1[C@@H](CN3C(=O)c4ccccc4C3=O)c3[nH]c4ccccc4c3C[C@@H]21 = y
• CN1[C@@H]2c3[nH]c4ccccc4c3C[C@H]1[C@H](C#N)N1[C@@H](CNC(=O)c3cccc(C(F)(F)F)c3)c3[nH]c4ccccc4c3C[C@@H]21 = y
